Give hP2X23/hP2X3* Selectivity (1321N1) for every item shown.
# studyTarget: human P2X2/3 receptors (Homo sapiens, UniProt P56373+Q9UBL9)
# Construct: expressed in transfected cells; host or cells: human astrocytoma 1321N1 (1312N1 [sic])
# measurementDescription: Intracellular calcium measurement, antagonist activity at human P2X2/3 receptors (hP2X23 1321N1), Fluo8
# Type: cell-based
# conditionSet: ratio of column 4) hP2X2/3 to column 3) hP2X3, 1321N1
Give bare numbers.

Answered cases to consult:
CCc1cc2n(CC(=O)Nc3ccc(F)cn3)c3c(c(=O)n2n1)CN(C(C)C)C3=O [Example 24]
132
COC[C@H](C)N1Cc2c(n(CC(=O)Nc3ccc(F)cn3)c3cc(C(=O)NCC4CC4)nn3c2=O)C1=O [Example 190]
361
CCc1cc2n(CC(=O)Nc3ccc(C)cn3)c3c(c(=O)n2n1)CN(C(C)C)C3=O [Example 65]
51
CC(C)N1Cc2c(n(CC(=O)Nc3ccc(F)cn3)c3cc(C(=O)N4CCCCC4)nn3c2=O)C1=O [Example 183]
118
COC[C@H](C)N1Cc2c(n(CC(=O)Nc3ccc(F)cn3)c3cc(-c4ccncc4C)nn3c2=O)C1=O [Example 152]
328
CC(C)N1Cc2c(n(CC(=O)Nc3ccc(F)cn3)c3cc(C4CCN(C)C4)nn3c2=O)C1=O (racemic) [Example 249]
85
CC(C)N1Cc2c(n(CC(=O)Nc3ccc(F)cn3)c3cc(C(=O)NCC(F)F)nn3c2=O)C1=O [Example 184]
70
CC[C@@H](C)N1Cc2c(n(CC(=O)Nc3ccc(Cl)cn3)c3cc(C(F)(F)F)nn3c2=O)C1=O [Example 15]
88

Please state, for each entry, its recorded hP2X23/hP2X3* Selectivity (1321N1).
1. CCc1cc2n(CC(=O)Nc3ccc(F)cn3)c3c(c(=O)n2n1)CN(Cc1ccc(F)cc1)C3=O [Example 112]
2. COC[C@H](C)N1Cc2c(n(CC(=O)Nc3ccc(F)cn3)c3cc(C(=O)N4CCCCC4)nn3c2=O)C1=O [Example 198]
3. COCCN1Cc2c(n(CC(=O)Nc3ccc(F)cn3)c3cc(C4CCOCC4)nn3c2=O)C1=O [Example 97]
4. CC(C)Cc1cc2n(CC(=O)Nc3ccc(F)cn3)c3c(c(=O)n2n1)CN(C1CCCC1)C3=O [Example 93]
5. CC[C@H](C)N1Cc2c(n(CC(=O)Nc3ccc(Cl)cn3)c3cc(C(F)(F)F)nn3c2=O)C1=O [Example 22]
6. CCc1cc2n(CC(=O)Nc3ccc(Cl)cn3)c3c(c(=O)n2n1)CN(CC1CCCO1)C3=O (stereo not shown) [Example 62]
7. CC(C)N1Cc2c(n(CC(=O)Nc3ccc(F)cn3)c3cc(NC(=O)C4CCOCC4)nn3c2=O)C1=O [Example 284]

Result:
232
581
207
295
35
21
201

Return reported hP2X23/hP2X3* Selectivity (1321N1) values for all items listed beneath this line.
1. CC(C)N1Cc2c(n(CC(=O)Nc3ccc(F)cn3)c3cc(C(=O)N4CCC4)nn3c2=O)C1=O [Example 223]
2. COC[C@H](C)N1Cc2c(n(CC(=O)Nc3ccc(F)cn3)c3cc(C(=O)N4CCC4)nn3c2=O)C1=O [Example 194]
3. Cc1cc(-c2cc3n(CC(=O)Nc4ccc(F)cn4)c4c(c(=O)n3n2)CN(C(C)C)C4=O)c(C)cn1 [Example 159]
4. CC(C)N1Cc2c(n(CC(=O)Nc3ccc(F)cn3)c3cc(-c4ccncc4)nn3c2=O)C1=O [Example 149]
5. CC(C)(C)c1cc2n(CC(=O)Nc3ccc(F)cn3)c3c(c(=O)n2n1)CN(CCO)C3=O [Example 135]

Result:
158
368
581
169
58

---

Could you please report measured IC50 for the items listed next?
# studyTarget: human P2X3 receptor (Homo sapiens, UniProt P56373)
# Sequence (P56373 1-397): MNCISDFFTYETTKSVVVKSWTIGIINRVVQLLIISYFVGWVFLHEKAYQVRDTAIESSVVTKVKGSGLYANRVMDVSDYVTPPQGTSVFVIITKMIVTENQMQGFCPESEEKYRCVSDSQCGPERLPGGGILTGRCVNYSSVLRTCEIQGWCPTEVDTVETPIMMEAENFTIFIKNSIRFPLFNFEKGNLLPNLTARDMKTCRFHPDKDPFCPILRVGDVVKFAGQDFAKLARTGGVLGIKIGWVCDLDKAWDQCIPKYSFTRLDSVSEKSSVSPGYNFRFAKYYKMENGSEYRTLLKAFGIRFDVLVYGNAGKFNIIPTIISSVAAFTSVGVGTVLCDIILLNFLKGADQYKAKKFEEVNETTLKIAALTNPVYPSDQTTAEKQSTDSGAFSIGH
# measurementDescription: Intracellular calcium measurement to assess antagonist activity at human P2X3 receptors (hP2X3 CHO), photina luminescence
# Assay type: cell-based
# Set-up: expressed in transfected cells; host or cells: Chinese hamster ovary (CHO) cells
# conditionSet: column 2), CHO cells, agonist α,β-methylene-ATP at EC50
One number for each entry, in nM.

The cases that follow already have their IC50 on record.
CC(C)N1Cc2c(n(CC(=O)Nc3ccc(F)cn3)c3cc(NC4CC4)nn3c2=O)C1=O [Example 167]
36
CCOC(=O)c1cc2n(CC(=O)Nc3ccc(F)cn3)c3c(c(=O)n2n1)CN(CCN1CCOCC1)C3=O [Example 123]
21
CC(C)N1Cc2c(n(CC(=O)Nc3ccc(Cl)cn3)c3cc(C(C)(C)C)nn3c2=O)C1=O [Example 3]
147

Go through the items and report each one's IC50.
1. Cc1ccc(-c2cc3n(CC(=O)Nc4ccc(F)cn4)c4c(c(=O)n3n2)CN([C@@H]2CCOC2)C4=O)nc1 [Example 160]
2. CCc1cc2n(CC(=O)Nc3ccc(F)cn3)c3c(c(=O)n2n1)CN(C1CCN(C(=O)NC(C)C)C1)C3=O (racemic) [Example 274]
3. CC(C)N1Cc2c(n(CC(=O)Nc3ccc(F)cn3)c3cc([C@H]4CCOC4)nn3c2=O)C1=O (single isomer, unassigned) [Example 281]

Result:
1. 16
2. 187
3. 42

Entry COC[C@H](C)N1Cc2c(n(CC(=O)Nc3ccc(F)cn3)c3cc(C(F)(F)F)nn3c2=O)C1=O [Example 37] ; IC50 = 135

---

Hi there, I'd appreciate the recorded IC50 for every entry that follows.
# studyTarget: human P2X3 receptor (Homo sapiens, UniProt P56373)
# Sequence (P56373 1-397): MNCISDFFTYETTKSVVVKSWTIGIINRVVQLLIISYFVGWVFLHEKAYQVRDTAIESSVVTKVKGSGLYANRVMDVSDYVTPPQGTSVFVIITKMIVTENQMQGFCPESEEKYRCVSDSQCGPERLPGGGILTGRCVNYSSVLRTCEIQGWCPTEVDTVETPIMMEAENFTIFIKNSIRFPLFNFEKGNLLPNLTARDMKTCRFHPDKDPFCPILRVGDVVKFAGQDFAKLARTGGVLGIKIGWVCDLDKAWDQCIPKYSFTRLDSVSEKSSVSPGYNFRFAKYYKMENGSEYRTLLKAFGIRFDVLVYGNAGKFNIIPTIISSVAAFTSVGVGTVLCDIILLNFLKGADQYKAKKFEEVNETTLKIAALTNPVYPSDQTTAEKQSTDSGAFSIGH
# measurementDescription: Intracellular calcium measurement to assess antagonist activity at human P2X3 receptors (hP2X3 CHO), photina luminescence
# Format: cell-based
# Parameters: expressed in transfected cells; host or cells: Chinese hamster ovary (CHO) cells
# conditionSet: column 2), CHO cells, agonist α,β-methylene-ATP at EC50
Give bare numbers, in nM.

COC[C@H](C)N1Cc2c(n(CC(=O)Nc3ccc(F)cn3)c3cc(C(=O)Nc4ccon4)nn3c2=O)C1=O [Example 215]
63
CC(C)N1Cc2c(n(CC(=O)Nc3ccc(F)cn3)c3cc(Cc4ccccn4)nn3c2=O)C1=O [Example 133]
22
CC(C)(C)c1cc2n(CC(=O)Nc3ccc(Cl)cn3)c3c(c(=O)n2n1)CN(C1COC1)C3=O [Example 48]
555

Now let's try a different one.
# lookup: CC(C)N1Cc2c(n(CC(=O)Nc3ccc(F)cn3)c3cc(C4CCC(=O)N4C)nn3c2=O)C1=O (racemic) [Example 231] on human P2X3 receptor (Homo sapiens, UniProt P56373), IC50 = 95

---

# studyTarget: human P2X3 receptor (Homo sapiens)
# measurementDescription: Intracellular calcium measurement, antagonist activity at human P2X3 receptors (hP2X3 1321N1), Fluo8
# Format: cell-based
# Parameters: expressed in transfected cells; host or cells: human astrocytoma 1321N1 (1312N1 [sic])
# conditionSet: column 3); 1321N1 cells, human P2X3, Fluo8, agonist ATP at EC50
resultType: IC50 (nM)
One number for each entry, in nM.

Below, 5 compounds whose answers are already recorded.
COCc1cc2n(CC(=O)Nc3ccc(F)cn3)c3c(c(=O)n2n1)CN(C(C)C)C3=O
265
CCc1cc2n(CC(=O)Nc3ccc(F)cn3)c3c(c(=O)n2n1)CN(C[C@H]1CN(C)CCO1)C3=O
440
CC[C@@H](C)N1Cc2c(n(CC(=O)Nc3ccc(Cl)cn3)c3cc(C(F)(F)F)nn3c2=O)C1=O
53
Cc1ccc(-c2cc3n(CC(=O)Nc4ccc(F)cn4)c4c(c(=O)n3n2)CN(C(C)C)C4=O)cn1
8
CCc1cc2n(CC(=O)Nc3ccc(C)cn3)c3c(c(=O)n2n1)CN(CC1CCCO1)C3=O (stereo not drawn)
370

Count: 3. Required value per item: IC50.
1. CCc1cc2n(CC(=O)Nc3ccc(C)cn3)c3c(c(=O)n2n1)CN(C(C)C)C3=O
2. CC(C)N1Cc2c(n(CC(=O)Nc3ccc(F)cn3)c3cc(C(=O)N4CCOCC4)nn3c2=O)C1=O
3. CC(C)N1Cc2c(n(CC(=O)Nc3ccc(F)cn3)c3cc(C4CCN(C(=O)OC(C)(C)C)CC4)nn3c2=O)C1=O

Result:
[207, 67, 71]

Hi, could you look up IC50 for each item in my list?
1. CN(C)CCN1Cc2c(n(CC(=O)Nc3ccc(F)cn3)c3cc(C(C)(C)C)nn3c2=O)C1=O
2. CC(O)c1cc2n(CC(=O)Nc3ccc(F)cn3)c3c(c(=O)n2n1)CN(C(C)C)C3=O (racemic)
3. COC[C@H](C)N1Cc2c(n(CC(=O)Nc3ccc(F)cn3)c3cc(N(C)C)nn3c2=O)C1=O

Result:
[400, 210, 29]

Hey, can you go through the list below and give me IC50 for every item?
1. CC(C)Cc1cc2n(CC(=O)Nc3ccc(F)cn3)c3c(c(=O)n2n1)CN(C(C)C)C3=O
2. CCc1cc2n(CC(=O)Nc3ccc(Cl)cn3)c3c(c(=O)n2n1)CN(CC1CCOC1)C3=O (stereo not drawn)

Result:
8
480

// each listed compound needs a value for IC50
1. CCc1cc2n(CC(=O)Nc3ccc(F)cn3)c3c(c(=O)n2n1)CN(C[C@@H]1COCCN1C(C)C)C3=O
2. CC(C)N1Cc2c(n(CC(=O)Nc3ccc(F)cn3)c3cc(-c4ccccc4)nn3c2=O)C1=O

Result:
1: 141; 2: 16
